test system: Candida albicans ATCC 11651; test: In vivo systemic Candida infection in mice, primary assay; set-up: species or system Candida albicans; CF-1 female mice; details: 150 mg/kg per day, day 21
Where a name gives a salt, the structure may show the parent alone.
measureName: % Survival (%)
I only need the number, in %, no unit after it.

Illustrative cases are given below, each with its answer.
{"compound": "C=C(c1ccccc1Cl)C(O)(Cn1cncn1)c1ccc(F)cc1F (stereo not shown) [35 salt]", "unitOfMeasurement": "%", "observedMeasurement": 70}
{"compound": "C=C(c1ccc(F)cc1)C(O)(Cn1cncn1)c1ccc(F)cc1 (single isomer, unassigned) [Example 1277]", "unitOfMeasurement": "%", "observedMeasurement": 90}
{"compound": "C=C(c1ccccc1Cl)C(O)(Cn1cncn1)c1ccc(Cl)cc1 (stereo not shown) [34 salt]", "unitOfMeasurement": "%", "observedMeasurement": 100}

Please report the recorded % Survival for C=C(c1ccc(F)cc1)C(O)(Cn1cncn1)c1ccc(F)cc1 (single isomer, unassigned) [Example 1277a] . 0

meta.source: patent US4965280A
